System: HT-29
Test: Growth inhibition of human HT-29 cells after 96 hrs by sulforhodamine B assay
Assay type: functional
Conditions: HT-29, 96 h
Measure: GI50 (µM)

For orientation, consider the following solved cases.
{"Compound": "CCC(O)[C@@H](CC)Nc1nc(NCc2cccnc2)c2ncn(C(C)C)c2n1 (mixture of isomers)", "Value reported": 20}
{"Compound": "CC[C@H](CO)Nc1nc(NCc2cccnc2)c2ncn(C(C)C)c2n1", "Value reported": 5.8}
{"Compound": "CC[C@H](Nc1nc(NCc2ccccc2)c2ncn(C(C)C)c2n1)C(C)(C)O", "Value reported": 23}
{"Compound": "CC[C@@H](Nc1nc(NCc2cccnc2)c2ncn(C(C)C)c2n1)C(O)C(C)C (mixture of isomers)", "Value reported": 32}
{"Compound": "CC[C@@H](Nc1nc(NCc2ccccc2)c2ncn(C(C)C)c2n1)C(O)C(C)(C)C (mixture of isomers)", "Value reported": 14.5}

(I) CC[C@H](CO)Nc1nc(NCc2ccncc2)c2ncn(C(C)C)c2n1
(II) CCC(O)[C@H](CC)Nc1nc(NCc2cccnc2)c2ncn(C(C)C)c2n1 (mixture of isomers)
Which of these two has the smaller recorded GI50: I or II ? # reply format: chosen label
II
(II: 12.5 µM, I: 23 µM)

(I) CC[C@H](Nc1nc(NCc2ccccn2)c2ncn(C(C)C)c2n1)C(O)C(C)(C)C (mixture of isomers)
(II) CC[C@H](CO)Nc1nc(NCc2ccccn2)c2ncn(C(C)C)c2n1
Hi, I'm comparing I with II and wondering which one has the bigger number for GI50. Any idea? # reply format: chosen label
II
